Catalogue of compounds with associated melting point
Where a name gives a salt, the structure may show the parent alone.

Solved entries (count: 2):
>>> result("NC(=NC(=O)c1nc(Cl)c(N)nc1N)NCCCCCCCCCCCC(=O)Nc1ncc[nH]1")
"102 to 104 °C"
>>> result("CN(C)CCCNC(=O)CCCCCCCCCCN(C(=N)N)C(=O)c1nc(Cl)c(N)nc1N (as salt: salt)")
"52 to 56 °C"

Tell me the measured melting point of "CN(C)CCCNC(=O)CCCCCCCCCCCNC(N)=NC(=O)c1nc(Cl)c(N)nc1N" , please. 82 to 84 °C

Tell me the measured melting point of N=C(NCCCCCCCCCCCC(=O)N1CCNCC1)NC(=O)c1nc(Cl)c(N)nc1N (as salt: hydrochloride) [ALB 27069, dihydrochloride] , please. 148 to 150 °C

Tell me the measured melting point of "N=C(N)N(CCCCCCCCCCC(N)=O)C(=O)c1nc(Cl)c(N)nc1N" , please. 69 to 72 °C

Tell me the measured melting point of "N=C(N)N(CCCCCCCCCCC(=O)O)C(=O)c1nc(Cl)c(N)nc1N" , please. 181 to 191 °C
